Assay: Urinary (renal) excretion in rats after a 30-min infusion of Kang-Ai injection
Type: in vivo, Sprague–Dawley rats
Conditions: rat, in vivo, iv
CLR (renal excretory clearance) strictly less than 10 mL/h = TRUE. Otherwise FALSE.

* O=C1C=CC[C@@H]2[C@H]3C[C@H](O)CN4CCC[C@@H](CN12)[C@@H]34 [Compound A6, 9α-hydroxysophocarpine] | TRUE
* CC(C)=CCC[C@](C)(O)[C@H]1CC[C@]2(C)[C@@H]1[C@H](O)C[C@@H]1[C@@]3(C)CC[C@H](O)C(C)(C)[C@@H]3[C@@H](O[C@@H]3O[C@H](CO)[C@@H](O)[C@H](O)[C@H]3O[C@@H]3OC[C@@H](O)[C@H](O)[C@H]3O)C[C@]12C [Compound C3, Notoginsenoside R2] | FALSE
* O=C1CCCC2=C3CCC[N+]4([O-])CCC[C@@H](CN12)[C@@H]34 (some centres unmarked) [Compound A7, Leontalbinine N-oxide] | FALSE
* O=C1CCC[C@@H]2[C@H]3CCCN4CCC[C@@](O)(CN12)[C@@H]34 [Compound A9, Sophoranol] | FALSE
* O=c1cccc([C@@H]2C[C@H](CO)[C@H]3CCCCN3C2)[nH]1 [Compound A8, Mamanine] | TRUE

---

# maps each entry to its Three freeze-thaw cycles (-80 °C ↔ 23 °C), Mean±SD
Assay: Stability tests of analytes in rat plasma QC samples
Type: in vitro ADME
Conditions: rat plasma, nominal conc. 20 nM
attribute.measured: Three freeze-thaw cycles (-80 °C ↔ 23 °C), Mean±SD (nM)

• CC(C)=CCC[C@](C)(O[C@@H]1O[C@H](CO[C@@H]2OC[C@H](O)[C@H](O)[C@H]2O)[C@@H](O)[C@H](O)[C@H]1O)[C@H]1CC[C@]2(C)[C@@H]1[C@H](O)C[C@@H]1[C@@]3(C)CC[C@H](O[C@@H]4O[C@H](CO)[C@@H](O)[C@H](O)[C@H]4O[C@@H]4O[C@H](CO)[C@@H](O)[C@H](O)[C@H]4O)C(C)(C)[C@@H]3CC[C@]12C [Compound D4, Ginsenoside Rb2] = 20.89
• CC(C)=CCC[C@](C)(O[C@@H]1O[C@H](CO)[C@@H](O)[C@H](O)[C@H]1O)[C@H]1CC[C@]2(C)[C@@H]1[C@H](O)C[C@@H]1[C@@]3(C)CC[C@H](O)C(C)(C)[C@@H]3[C@@H](O[C@@H]3O[C@H](CO)[C@@H](O)[C@H](O)[C@H]3O[C@@H]3OC[C@@H](O)[C@H](O)[C@H]3O)C[C@]12C [Compound C8, Notoginsenoside R1] = 21.51

---

Assay: Urinary (renal) excretion in rats after a 30-min infusion of Kang-Ai injection
Format: in vivo, Sprague–Dawley rats
Conditions: rat urine 0–12 h; Kang-Ai injection 6 mL/kg iv
attribute.measured: fe-U,0–12h (fraction of dose excreted into urine) (%)

• CC(C)=CCC[C@](C)(O[C@@H]1O[C@H](CO)[C@@H](O)[C@H](O)[C@H]1O)[C@H]1CC[C@]2(C)[C@@H]1[C@H](O)C[C@@H]1[C@@]3(C)CC[C@H](O)C(C)(C)[C@@H]3[C@@H](O)C[C@]12C [Compound C2, Ginsenoside F1] = 23.37
• CC(C)=CCC[C@](C)(O[C@@H]1O[C@H](CO[C@@H]2OC[C@H](O)[C@H](O)[C@H]2O)[C@@H](O)[C@H](O)[C@H]1O)[C@H]1CC[C@]2(C)[C@@H]1[C@H](O)C[C@@H]1[C@@]3(C)CC[C@H](O[C@@H]4O[C@H](CO)[C@@H](O)[C@H](O)[C@H]4O[C@@H]4O[C@H](CO)[C@@H](O)[C@H](O)[C@H]4O)C(C)(C)[C@@H]3CC[C@]12C [Compound D4, Ginsenoside Rb2] = 27.80
• CC(C)=CCC[C@](C)(O[C@@H]1O[C@H](CO)[C@@H](O)[C@H](O)[C@H]1O)[C@H]1CC[C@]2(C)[C@@H]1[C@H](O)C[C@@H]1[C@@]3(C)CC[C@H](O)C(C)(C)[C@@H]3[C@@H](O[C@@H]3O[C@H](CO)[C@@H](O)[C@H](O)[C@H]3O[C@@H]3OC[C@@H](O)[C@H](O)[C@H]3O)C[C@]12C [Compound C8, Notoginsenoside R1] = 72.12

---

Reported Extracted samples at 8 °C for 18 h, Mean±SD values follow for various molecules
Experiment: Stability tests of analytes in rat plasma QC samples
Assay type: in vitro ADME
Conditions: rat plasma, nominal conc. 100 nM
attribute.measured: Extracted samples at 8 °C for 18 h, Mean±SD

- CC(C)=CCC[C@](C)(O[C@@H]1O[C@H](CO[C@@H]2O[C@H](CO)[C@@H](O)[C@H](O)[C@H]2O)[C@@H](O)[C@H](O)[C@H]1O)[C@H]1CC[C@]2(C)[C@@H]1[C@H](O)C[C@@H]1[C@@]3(C)CC[C@H](O[C@@H]4O[C@H](CO)[C@@H](O)[C@H](O)[C@H]4O[C@@H]4O[C@H](CO)[C@@H](O)[C@H](O)[C@H]4O)C(C)(C)[C@@H]3CC[C@]12C [Compound D5, Ginsenoside Rb1]: 101.02 ± 12.87 nM
- CC(C)=CCC[C@](C)(O)[C@H]1CC[C@]2(C)[C@@H]1[C@H](O)C[C@@H]1[C@@]3(C)CC[C@H](O)C(C)(C)[C@@H]3[C@@H](O[C@@H]3O[C@H](CO)[C@@H](O)[C@H](O)[C@H]3O[C@@H]3O[C@@H](C)[C@H](O)[C@@H](O)[C@H]3O)C[C@]12C [Compound C5, Ginsenoside Rg2]: 98.05 ± 6.29 nM
- O=C1C=CC[C@@H]2[C@H]3CCC[N+]4([O-])CCC[C@@H](CN12)[C@@H]34 (stereo partly shown): 108.59 ± 6.59 nM
- CC(C)=CCC[C@](C)(O[C@@H]1O[C@H](CO[C@@H]2OC[C@H](O)[C@H](O)[C@H]2O)[C@@H](O)[C@H](O)[C@H]1O)[C@H]1CC[C@]2(C)[C@@H]1[C@H](O)C[C@@H]1[C@@]3(C)CC[C@H](O[C@@H]4O[C@H](CO)[C@@H](O)[C@H](O)[C@H]4O[C@@H]4O[C@H](CO)[C@@H](O)[C@H](O)[C@H]4O)C(C)(C)[C@@H]3CC[C@]12C [Compound D4, Ginsenoside Rb2]: 96.04 ± 12.11 nM
- CC(C)=CCC[C@](C)(O[C@@H]1O[C@H](CO)[C@@H](O)[C@H](O)[C@H]1O)[C@H]1CC[C@]2(C)[C@@H]1[C@H](O)C[C@@H]1[C@@]3(C)CC[C@H](O[C@@H]4O[C@H](CO)[C@@H](O)[C@H](O)[C@H]4O[C@@H]4O[C@H](CO)[C@@H](O)[C@H](O)[C@H]4O)C(C)(C)[C@@H]3CC[C@]12C [Compound D2, Ginsenoside Rd]: 93.92 ± 4.07 nM
- CC(C)=CCC[C@](C)(O)[C@H]1CC[C@]2(C)[C@@H]1[C@H](O)C[C@@H]1[C@@]3(C)CC[C@H](O)C(C)(C)[C@@H]3[C@@H](O[C@@H]3O[C@H](CO)[C@@H](O)[C@H](O)[C@H]3O)C[C@]12C [Compound C1, Ginsenoside Rh1]: 100.20 ± 11.08 nM
- CC(C)(O)[C@@H]1CC[C@](C)([C@H]2[C@@H](O)C[C@@]3(C)[C@@H]4C[C@H](O)[C@H]5C(C)(C)[C@@H](O[C@@H]6OC[C@@H](O)[C@H](O)[C@H]6O[C@@H]6O[C@H](CO)[C@@H](O)[C@H](O)[C@H]6O)CC[C@@]56C[C@@]46CC[C@]23C)O1 [Compound B3, Astragaloside III]: 99.17 ± 12.67 nM

---

Assay: Stability tests of analytes in rat plasma QC samples
Type: in vitro ADME
Conditions: rat plasma, nominal conc. 400 nM
In this section, each of the compounds is paired with its reported Three freeze-thaw cycles (-80 °C ↔ 23 °C), Mean±SD.
attribute.measured: Three freeze-thaw cycles (-80 °C ↔ 23 °C), Mean±SD (nM)

- CC(C)=CCC[C@](C)(O[C@@H]1O[C@H](CO)[C@@H](O)[C@H](O)[C@H]1O)[C@H]1CC[C@]2(C)[C@@H]1[C@H](O)C[C@@H]1[C@@]3(C)CC[C@H](O)C(C)(C)[C@@H]3[C@@H](O[C@@H]3O[C@H](CO)[C@@H](O)[C@H](O)[C@H]3O[C@@H]3OC[C@@H](O)[C@H](O)[C@H]3O)C[C@]12C [Compound C8, Notoginsenoside R1]: 379.04
- CC(C)(O)[C@@H]1CC[C@](C)([C@H]2[C@@H](O)C[C@@]3(C)[C@@H]4C[C@H](O)[C@H]5C(C)(C)[C@@H](O[C@@H]6OC[C@@H](O)[C@H](O)[C@H]6O[C@@H]6O[C@H](CO)[C@@H](O)[C@H](O)[C@H]6O)CC[C@@]56C[C@@]46CC[C@]23C)O1 [Compound B3, Astragaloside III]: 387.44
- O=C1C=CC[C@@H]2[C@H]3CCC[N+]4([O-])CCC[C@@H](CN12)[C@@H]34 (stereo partly drawn): 418.53
- CC(C)=CCC[C@](C)(O[C@@H]1O[C@H](CO)[C@@H](O)[C@H](O)[C@H]1O)[C@H]1CC[C@]2(C)[C@@H]1[C@H](O)C[C@@H]1[C@@]3(C)CC[C@H](O[C@@H]4O[C@H](CO)[C@@H](O)[C@H](O)[C@H]4O[C@@H]4O[C@H](CO)[C@@H](O)[C@H](O)[C@H]4O)C(C)(C)[C@@H]3CC[C@]12C [Compound D2, Ginsenoside Rd]: 397.28
- CC(C)(O)[C@@H]1CC[C@](C)([C@H]2[C@@H](O)C[C@@]3(C)[C@@H]4C[C@H](O[C@@H]5O[C@H](CO)[C@@H](O)[C@H](O)[C@H]5O)[C@H]5C(C)(C)[C@@H](O[C@@H]6OC[C@@H](O)[C@H](O)[C@H]6O)CC[C@@]56C[C@@]46CC[C@]23C)O1 [Compound B2, Astragaloside IV]: 385.93
- CC(C)=CCC[C@](C)(O[C@@H]1O[C@H](CO[C@@H]2OC[C@H](O)[C@H](O)[C@H]2O)[C@@H](O)[C@H](O)[C@H]1O)[C@H]1CC[C@]2(C)[C@@H]1[C@H](O)C[C@@H]1[C@@]3(C)CC[C@H](O[C@@H]4O[C@H](CO)[C@@H](O)[C@H](O)[C@H]4O[C@@H]4O[C@H](CO)[C@@H](O)[C@H](O)[C@H]4O)C(C)(C)[C@@H]3CC[C@]12C [Compound D4, Ginsenoside Rb2]: 440.44
